Test: yeast display, Sf9 membrane polyspecificity reagent, FACS + sequencing; frameworks hold sequencing errors
readout type: polyreactivity (PSR sort gate)

Record excerpt, results attached:
QVQLVESGGGLVQAGGSLRLSCAASGIIFYWYAMGWYRQAPGKERELVAAITRVGSTNYADSVKGRFTISRDNAKNTVYLQMNSLKPEDTAVYYCAADLWQRHYLVGFGIRYDYWGQGTQVTVSS | low polyreactivity
QVQLVESRAGLVQAGGSLRLSCAASGSTFGYYTMGWYRQAPGKERELVAAITWSGGSSYYADSVKGRFTISRDNAKKTVYLEMNSLKAEDTAVYFGAADDYWTPFGYWGQGTQVTVSA | low polyreactivity
QVQLVESGGGLVQAGGSLRVSCAASGFTLQRNTMGWYRQAPGKEREFVAAISVRGGSTYYADSVKGRFTISRDNAQNTVYLQMNSLKPEDTAVYYCAAVGRPTQYSYPYGYWGQGTQVTVSS | high polyreactivity
QVQLVESGGGLVQAGGSLRLSCAASGLIFQFNAKGWYTQAPGKDREFVAAISGRADSTYYADSVKGRFTISRDNAKNTVYLQMNSLKPEDTAVYYCAALAYYHRYEYWGQGTQVTVSS | low polyreactivity
QVQLVESGGGLVQAGGSLRLSCAASGITFLNYAMGWYRQAPGKERELVAAIDTRGGRTNYADSVKGRFTISRDNAKNTVYLQMNSLKPEDTAVYYCNALGYYVHKMDYWGQGTQVTVSS | low polyreactivity
QFQLVESGGGLVQAGGSLRLSCAASGSIFDAYAMGWYRQAPGKERELVPAITYSGGSTYYADSVKGRFTISRDNAKNTVYLQMNSLKPEDTAVYYCNTDSRVRTWFRAFTFDSWGQGTQVTVSS | low polyreactivity
QVQLVESGGGLVQAGGSLRLSCAASGITFGANAMGWYRQAPGKERELVADITWSGGDTYYADSVKGRFTISRDTAKNTVYLQLHSLKPEDTAVYYCAVDTYIYTNRRYTKFDYWGQGTQVTVSS | low polyreactivity
QVQLVESGGGLVQAGGSLRLSCAASGRTSEIYTMGWYRPAPGKERELVASINTNYADSVKGGFTNSRDNAKNTVYLQMNCLKPEDTAVYYCNADDTIEFNYWGQGTQVTVSW | low polyreactivity
QVQLVESGGGLVQAGGSLRLSCAASGSIFGYNVMGGDRQAPGKEREFVARINYIGSSTYYADSVKGRFTISRDNAKNTVYLQMNSLKPEDTADYYCNADNARGRSGVRRYYWGQGTQVTVSS | high polyreactivity
QVQLVESGGGLVQAGGSLRLSCAASGSIFSRYAMGWYSQAPGKELELVAAISWRGGSTYYADSVKGRFTISRDNAKNTVYLQMNSLKPEDTAVYYCAVRDYRPYSRFDFWGQGTQVTVSS | high polyreactivity

Now let's try a different one.
Q: Data request, read-out polyreactivity (PSR sort gate), for "QVQLVESGGGLVQAGGSLRLSCAASGSTFYTYVMGWYRQAPGKERELVAAISSGGGNTYYADTVTGRFTISRDHGKNTVYLQMNSLKPEDTAVYYCAAETFRWSDYDYWGQGTQVTVSS"
Result: high polyreactivity

* * *

Assay: yeast display, Sf9 membrane polyspecificity reagent, FACS + sequencing; frameworks hold sequencing errors
readout type: polyreactivity (PSR sort gate)

QVQLVESGGGLVQAGGSLRLSCAASGRTFPFYAMGWYRPAPGKERELVAAIHSGGITNYADSVKGRFTISRDNAKNTVYLQMNSLKPEDYAVYDCAALTAFYRERGYWGEGTQVTVSS | low polyreactivity
QVQLGESGGVLVQAGGSLRLSCAASGRIFSENAMGWYRQATGKEWELVAAITGNGGDTYYADSVKGRFTISRDTAKNTVYLQMNSLKPEDTAVYYCAAETGGLGGDYWGQGTQVTVSS | low polyreactivity
QVQLVESGGGLVQAGGSLRLSCAASGFIFYLYAMGWYRQAPGKERELVAAISWDGGSTYYADSVKGRFTISRDNAKNTVYLQMNSLKPEDTAVYYCAADREFWWEVVYTYEYYYWGQGTQVTVSS | low polyreactivity
QVQLVESGGGLVQAGGSLRLSCAASGSIFRYYDMGWYRQAPGKERELVAAISDSTGTTYYADSVKGRFTISRDNAKNTVYLQMNSLKPEDTAVYYCTAGYDPRYDYWGQGTQVTVSS | high polyreactivity
QVQLVESGGGLVQAGGSLRLSCAASGFTFSYNAMGWYRQAPGKERELVAGISYGGGNTFYADSVKGRFTISRDNAKNTVYLQMNSLKPEDTAVYDCAAVNKSGTYVEYDYWGQGTQVTVSS | low polyreactivity
QVQLVESGGGLVQAGGSLRLSCAASGFIFSYAMGWYRQAPGKERELVAAISKSGGRTYYADSVKGRFTISRDNAKNTVYLQMNSLKPEDTAVYYCAVRDLHLSIARYNYWGQGTQVTVSS | high polyreactivity

Q: Entry "QVHLVESGGGLVQAGGSLRLSCAASGSTFYRYAMGWYRQAPGKEREFVAAISTRGGSTHYADSVKGRFTISRDNAKNTVYLQMNSLKPEDTAVSYCNARGYYSVPSNTGIRYYRFDYWGQGTQVTVSS" has what polyreactivity (PSR sort gate)?
Result: low polyreactivity

Q: Fill in: polyreactivity (PSR sort gate) of "QVQLVESGGGLVQAGGSLRLSCAASGRIFSYYAMGWYRQAPGKERELVAAITRRDGRTYYADSVKGRFTISRDNAKNTVYLQMNSLKPEDTAVYYCAAYLAASYDWGQGTQVTVSS" is ___
Result: low polyreactivity

Q: Entry "QVQLQESGGGVQAGGSLRLSCAASGSISAPILMGWYRQAPGKERELVAGIGGGANTYYADSVKGRFTFSRDNAKYTVYLQMYSLKPEDTAVYYCAAGDYYWTNFGYWGQGTQVTASS" has what polyreactivity (PSR sort gate)?
Result: high polyreactivity

Q: Param item = "QVQLVESGGGLVQAGGSLRLSCAASGRNLVQYTMGWYRQAPGKERELVAVISWRECRTYYADSVKGRFTISRDNAKNTVFLQMNSLKPVDTAVYYCATSGSFWQRYYWGQGTQVTVSS" ; retrieve measured polyreactivity (PSR sort gate).
Result: low polyreactivity

Q: Looking for the measured polyreactivity (PSR sort gate) of "QDQHVESGGGLVQAGGSLRLSCAASGSTLLYYVMGWYRQAPGKERELVAAITGTGGRTYYADSVKGRFTISRDNAKNTVYLQMNSLKPEDTAVYYCAREWRTRIYYYWGQGTQVTVSS" , can you help?
Result: low polyreactivity

* * *

Assay: yeast display, Sf9 membrane polyspecificity reagent, FACS + sequencing; frameworks hold sequencing errors
readout type: polyreactivity (PSR sort gate)

// worked examples, polyreactivity (PSR sort gate) included
QVQLVESGGGLVQAGGSLRLSCAASAIIFDGNTMGWYRQAPGKEREFVAAISRNGGTTSYADSVKGRFTISRDNAKNTVYLQMNSLKPEDTAVYYCAADVETFWGWRYEYWGQGTQVTVSS | low polyreactivity
QVHLVESGGGLVQAGGSLRLSCAASGIIFYWNPMGWYRQAPGKERELVAAISWSGGSTYYADSVKGRFTISRDNAKNTVYLQMNSLKPEDTAVYYCNAVTTYYPQFRPGAIPGVGYGFWGQGTQVTVSS | low polyreactivity
QVQLVESGGGLVQAGGSLRLSCAASGRIFAYYAMGWYREAAGKERELVAAITTNGGGTYYADSVKGRFTISRDNAKNTVYLQMNSLKPEHTAVYYSNADKQRSSIFDYWGQGTQVTVSS | low polyreactivity
QVQLVESGGGLVQAGGSLRLSCAASGIIFYGNVMGWYRQAPGKERELVAAITSTGSTSYADSVKGRFTMSRDNGKNTVYLQMNSLKPEDTAVYYCAADNAVWEYDYWGQGTQVTVSS | low polyreactivity
QVQLVESGGGLVQAGGILRLSCAARTFVNYDMGWTRQAHGKERELVAAISSSGGSTNYADSVKGRFTISRDNAKNTVYLQMKSLKPEDTAVYYCAAASRRQVIPAMYYWGQGTQVTVSS | high polyreactivity
QVQLVESGGGLVQAGGSLRLSCAASGRTFRQYAMGWSRQAPGKERELVAGITASGGSTSYADSVKGRFTISRDNAKNTVYLQMNSLKPEDTAVYYCAKLSYLYRYDYWGQGTQVTVSS | high polyreactivity
QVQLVESGGGLVQAGGSLRLSCAASGFIFVYGNVMGWYRQAPGKERDLVASITSDGGSTNYADSVKGRFTISRDNAKNTVYLQMNSLKPEDTAVYYCNADVPRGFGGEYDYWGQGTQVTVSS | low polyreactivity
QDQLVESGGGLVQAGGSLRLICAASGSNLNNYAMGWSRQAPGKERELVAAISSSGGTNYADSVKGRFTISRDNAKNTVYLQMNSLKPEDTAVYYCNADVLEGGYDYWGQGPQVTVSS | low polyreactivity
QVQLLESGGGLVQAGGSLRLSCAASGFNFGVYAMGWYRQAPGKERELVAAITRSGGSTYYADSVKGRYTISRDNAKNSVYLQMNSLNPEDTAVYYCAARARDHYGYWGQGTQVSVSS | high polyreactivity
QVQLVESGGGLVQAGGSLRLSCAASGIIFVKNAMGWYRQAPGKERELVASISGSGGRTYYADSVKGRFTISRDNAKNTVYLQMKSLKPEDTAVYYCNTLLAPHARKARRHDYWGQGTQVTVSS | low polyreactivity

Q: What value of polyreactivity (PSR sort gate) has been reported for the following sequence? "QVQLVESGGGLVQAGGSLRLSCAASGRISTAYAMGWYRQAPGKERELVAAISSGTSTTYADSVKGRFTISRDNAKNTVYLQMNSLQPEDTAVYYCNADSWYGHYDSWGQGTQVTESS"
Result: low polyreactivity

Q: Find the recorded polyreactivity (PSR sort gate) belonging to "QVQLVESGGGLVQAGGSLRLSCAASGRTFWYYAMGWYRPAPGKERELVAGIRSGGSTYYADSVKGRFTISRDNAKNTVYLQMNSLKPEDTAVYYCATDYYYSNAKYDYWGQGTQVTVSS" and report it.
Result: high polyreactivity

Q: Could you tell me which polyreactivity (PSR sort gate) is on file for "QVQLVESGGGLVQAGGSLRLSCAASGIFVRYAMGWYRQAPGKEREMVAAISFSDDSTYYADSVKGRFTISRDNAKNTVYLQMNSLKPEDTAVYYCNARLERTPCLYLYGSWGQVTQVTVSS" ?
Result: low polyreactivity

Q: Would you mind telling me what polyreactivity (PSR sort gate) value was observed for "QVQLVESGGGLVQAGGSLRLSCAASGSTFYTYALGWYRQAPGKERELDAAITYNGGSTYYADSVKGRFTISRDNAKNTVYLQMNSLKPEDTAVYYCARTIYLGSRVNGYWRYDYWGQGTQVTVSS" ?
Result: high polyreactivity

Q: Could you share which polyreactivity (PSR sort gate) value was measured for "QVHLVDSGGGLVQAGGSLRLSCAASGRIIDLYAMGCYRQAPGKEWELVAVIDIRDTSTYYADSVKGRFTISRDNAKNTVYLEMNSLKPEDTSVYYCAADYLVYDWYTYGYWGQGTQVTVSS" ?
Result: high polyreactivity

Q: Request the reported polyreactivity (PSR sort gate) associated with "QVQLVESGGGLVQAGGSLRLSCAASGRTFRRNAMGWYRQAPGKERELVAAISWRGVSTYYADSVKGRFTISRDNAKNTVYLQMNSLKPEDNALYYCAVDFPYTRRDYWGQGPQVTVSS"
Result: high polyreactivity

Q: Quick one: polyreactivity (PSR sort gate) of "QVQLVESGGGLVQAGGSLRLSCAASGRTFRLNGMGWYRQAPGKDRELVAAITWSGGRTYYADSVKGRFTISRDNAKNTVYLQKNSLKPEDTAVYYCAAGKSSYGIPKYYYWGQGTQVTVSS" ?
Result: high polyreactivity

Q: Could you share which polyreactivity (PSR sort gate) value was measured for "QVQLVESGGGLVQAGGSLRLSCAASGNIFSWYAKGWYRQAPGKERELVAAITSGGRTYYADSVKGRFTISRDNAKNTVYLQMNSLKPEDTAVYYCNAVSRLYNRRDYWVQGTQVTVSS" ?
Result: high polyreactivity

Q: // query polyreactivity (PSR sort gate) value for entry "QVQLVESGGGLVQAGGSLRLSCAASGRIFYRNVMGWYRQAPGKERELVAAISYRGGSTSYADSVKGRFTISRDNAKNTVYLPMHILKPEDTAVDYCNAARIRPAYSDREYWGQGTQVTVSS"
Result: low polyreactivity

Q: Dear colleague, I am looking for the recorded polyreactivity (PSR sort gate) of the following sequence: "QVQLVESGGGLVQAGGSLRLSCAASGGTITSYAMGWYRQAPGKERELVAAITRSGGSTYYADSVKGRFTISRDNAKNTVYLQMNSLKPEDTAVYYCAARYSTYPWYNSWGQGTQVTVSS"
Result: high polyreactivity

Q: Which measured polyreactivity (PSR sort gate) value corresponds to "QVQLVESGGGLVQAGGSLRLSCAASGSIFPWNTMGWYRQAPGKERELVARISTSGASTYYADSVKGRFTISRDNAKNTVYLQMNSLKPEDTAVYYCAARKRPFYKYDYWGQGTQVTVSS" ?
Result: high polyreactivity
